tested on: TrxR of SjTGR (thioredoxin glutathione reductase of Schistosoma japonicum); test: Inhibition of TrxR activity of SjTGR; format: biochemical; conditions: phage clone, 10^11 pfu; SjTGR 48 nM; vs activity of SjTGR without phage; repeated three times; P<0.01 vs phage library for JIPDys1, JIPDys2, JIPDys3
The following sequences are shown together with reported Percentage of inhibition of TrxR values.
endpoint: Percentage of inhibition of TrxR (%)

[[record]]
ordered_residues = "YTMPSLTLYAMG [JIPDys3, M13 phage clone from Ph.D.-12 library displaying peptide …]"
endpoint = "Percentage of inhibition of TrxR"
value = 54.72

[[record]]
ordered_residues = "WPHNWWPHFKVK [JIPDys1, M13 phage clone from Ph.D.-12 library displaying peptide …]"
endpoint = "Percentage of inhibition of TrxR"
value = 59.04

[[record]]
ordered_residues = "KHMHWHPPALNT [JIPDys4, M13 phage clone from Ph.D.-12 library displaying peptide …]"
endpoint = "Percentage of inhibition of TrxR"
value = 0.73

[[record]]
ordered_residues = "LHAETRSAMHRT [JIPDys2, M13 phage clone from Ph.D.-12 library displaying peptide …]"
endpoint = "Percentage of inhibition of TrxR"
value = 45.24


----------
The following sequences are shown together with reported Percentage of inhibition of GR values.
test system: GR of SjTGR (thioredoxin glutathione reductase of Schistosoma japonicum); test: Inhibition of GR activity of SjTGR; assay type: biochemical; conditions: phage clone, 10^11 pfu; SjTGR 48 nM; vs activity of SjTGR without phage; repeated three times; P<0.01 vs phage library for JIPDys1, JIPDys2
endpoint: Percentage of inhibition of GR (%)

[[record]]
ordered_residues = "YTMPSLTLYAMG [JIPDys3, M13 phage clone from Ph.D.-12 library displaying peptide …]"
value = 20.88

[[record]]
ordered_residues = "KHMHWHPPALNT [JIPDys4, M13 phage clone from Ph.D.-12 library displaying peptide …]"
value = 1.50

[[record]]
ordered_residues = "LHAETRSAMHRT [JIPDys2, M13 phage clone from Ph.D.-12 library displaying peptide …]"
value = 69.43

[[record]]
ordered_residues = "WPHNWWPHFKVK [JIPDys1, M13 phage clone from Ph.D.-12 library displaying peptide …]"
value = 80.80


----------
test system: Grx of SjTGR (thioredoxin glutathione reductase of Schistosoma japonicum); experiment: Inhibition of Grx activity of SjTGR; assay type: biochemical; conditions: phage clone, 10^11 pfu; SjTGR 48 nM; vs activity of SjTGR without phage; repeated three times; P<0.01 vs phage library for JIPDys1, JIPDys3
endpoint: Percentage of inhibition of Grx (%)

[[record]]
ordered_residues = "YTMPSLTLYAMG [JIPDys3, M13 phage clone from Ph.D.-12 library displaying peptide …]"
value = 43.02

[[record]]
ordered_residues = "LHAETRSAMHRT [JIPDys2, M13 phage clone from Ph.D.-12 library displaying peptide …]"
value = 25.64

[[record]]
ordered_residues = "KHMHWHPPALNT [JIPDys4, M13 phage clone from Ph.D.-12 library displaying peptide …]"
value = 1.23

[[record]]
ordered_residues = "WPHNWWPHFKVK [JIPDys1, M13 phage clone from Ph.D.-12 library displaying peptide …]"
value = 53.56

